The reported numbers originate from patent US20230242526A1.

Experiment Notes: In vitro liver microsome stability, mouse
Applied Conditions: microsomes, pH 7.4
Quantity Measured: half-life at 1 μM (min)
Field: numeric (min). Do not append units.

Ask: Return reported half-life at 1 μM; argument: Cc1ncc2n1-c1ccc(Cl)cc1C(c1ccccc1F)=NC2 [Midazolam, reference compound]
Reply: 4.59

----------
Experiment Notes: In vitro liver microsome stability, human
Applied Conditions: microsomes, pH 7.4
Quantity Measured: half-life at 1 μM (min)
Supply the numeric figure in min, leaving out any unit text.

Ask: # half-life at 1 μM lookup, item Cc1ncc2n1-c1ccc(Cl)cc1C(c1ccccc1F)=NC2 [Midazolam, reference compound]
Reply: 16.3

----------
Experiment Notes: Pharmacokinetic profiling in mouse (i.v. and i.g.)
Type: in vivo, male ICR mice
Applied Conditions: male, ICR, plasma, po, i.g. 30 mg/kg
Quantity Measured: Tmax
Respond with the figure and its unit, in that order.

Ask: Could you tell me which Tmax is on file for [2H]C([2H])([2H])c1cc2cnc(NC3CCN(S(C)(=O)=O)CC3)nc2n([C@@H]2CCC[C@@]2(C)O)c1=O ?
Reply: 15 min

Ask: May I ask what Tmax has been recorded for C[C@@]1(O)CCC[C@H]1n1c(=O)c(C(F)F)cc2cnc(NC3CCN(S(C)(=O)=O)CC3)nc21 [Comp. 5, reference compound] ?
Reply: 15 min

Ask: Name the reported Tmax value associated with the compound Cc1cc2cnc(NC3CCN(S(C)(=O)=O)CC3)nc2n([C@@H]2CCC[C@@]2(C)O)c1=O [Comp. 4, reference compound]
Reply: 15 min
